Assay: Part 2 three-period crossover pharmacokinetics / relative bioavailability of A, B, C
Format: in vivo, human
Conditions: male, human, in vivo, 500 mg
ASSAY_ENDPOINT: Cmax (ng/mL)
Write the answer as a number in ng/mL, unit excluded.

Lab note: measured Cmax of CS(=O)(=O)CCNCc1ccc(-c2ccc3ncnc(Nc4ccc(OCc5cccc(F)c5)c(Cl)c4)c3c2)o1 [lapatinib, reference compound] was 400
